test: Solvent solubility screen of Compound A (aliquot addition, HPLC of saturated solutions); type: physicochemical; conditions: 2-Propanol, 40 °C, organic solvent or mixture, thermodynamic from solid, 2-Propanol; read-out: Approximate Solubility
ATTRIBUTE MEASURED: solubility (mg/mL)
State just the number; it will be interpreted in mg/mL.

-- ask Find the recorded solubility belonging to COc1cc(O[C@H]2C(C)(C)[C@H](NC(=O)c3ccc(N4CCC(CN5CCN(c6ccc(C(=O)N[C@H]7CCC(=O)NC7=O)c(F)c6)CC5)CC4)cc3)C2(C)C)ccc1C#N and report it.
-- reply 0.205

----------
test: Solvent solubility screen of Compound A (aliquot addition, HPLC of saturated solutions); type: physicochemical; details: water, thermodynamic from solid, Water; read-out: Approximate Solubility
ATTRIBUTE MEASURED: solubility (µg/mL)
State just the number; it will be interpreted in µg/mL.

-- ask Find the recorded solubility belonging to COc1cc(O[C@H]2C(C)(C)[C@H](NC(=O)c3ccc(N4CCC(CN5CCN(c6ccc(C(=O)N[C@H]7CCC(=O)NC7=O)c(F)c6)CC5)CC4)cc3)C2(C)C)ccc1C#N and report it.
-- reply 0.5

----------
assay: Primary salt screen: XRPD post temperature cycling/evaporation, post drying and post storage at 40° C./75% RH; assay type: physicochemical; details: Compound A + 1.05 eq. counterion (= label); DCM
ATTRIBUTE MEASURED: XRPD results post temperature cycling and evaporation

Some molecules with known XRPD results post temperature cycling and evaporation results, for comparison:
O=C(O)c1ccccc1
A e
CS(=O)(=O)O
A e
O=C(O)CCC(=O)O
C e
O=C(O)C(O)C(O)C(=O)O (centres unmarked)
A e
N[C@@H](CCC(=O)O)C(=O)O
C e

In the following, a different molecule is considered.
-- ask Find the recorded XRPD results post temperature cycling and evaporation belonging to O=P(O)(O)O and report it.
-- reply S t *

----------
Recorded XRPD results, primary co-crystal screen post temperature cycling, one value per entry.
test: Co-crystal screen: XRPD post temperature cycling and post storage at 40° C./75% RH;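 further: value is the Compound A free base XRPD pattern number and 9 means a potential new one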; format: physicochemical; details: Compound A + 1.05 eq. co-former (= label); 1,4-Dioxane
Give a plain numeric answer without units written out.

Some compounds with known XRPD results, primary co-crystal screen post temperature cycling results, for comparison:
N[C@@H](Cc1ccc(O)cc1)C(=O)O [L-Tyrosine]
9
NC(N)=O [Urea]
9
N[C@@H](Cc1ccccc1)C(=O)O [L-Phenylalanine]
9
N[C@@H](Cc1c[nH]cn1)C(=O)O [L-Histidine]
9
O=C(O)[C@@H]1CCCN1 [L-Proline]
9

-- ask Find the recorded XRPD results, primary co-crystal screen post temperature cycling belonging to NC(=O)c1cccnc1 [Nicotinamide] and report it.
-- reply 4

----------
experiment: Solvent solubility screen of Compound A (aliquot addition, HPLC of saturated solutions); format: physicochemical; conditions: methylisobutyl ketone, organic solvent or mixture, thermodynamic from solid, Methylisobutyl ketone; read-out: Approximate Solubility
ATTRIBUTE MEASURED: solubility (µg/mL)
State just the number; it will be interpreted in µg/mL.

-- ask Find the recorded solubility belonging to COc1cc(O[C@H]2C(C)(C)[C@H](NC(=O)c3ccc(N4CCC(CN5CCN(c6ccc(C(=O)N[C@H]7CCC(=O)NC7=O)c(F)c6)CC5)CC4)cc3)C2(C)C)ccc1C#N and report it.
-- reply 530

----------
test: Solvent solubility screen of Compound A (aliquot addition, HPLC of saturated solutions); format: physicochemical; details: 1-propanol, 40 °C, organic solvent or mixture, thermodynamic from solid, 1-Propanol; read-out: Approximate Solubility
ATTRIBUTE MEASURED: solubility (µg/mL)
State just the number; it will be interpreted in µg/mL.

-- ask Find the recorded solubility belonging to COc1cc(O[C@H]2C(C)(C)[C@H](NC(=O)c3ccc(N4CCC(CN5CCN(c6ccc(C(=O)N[C@H]7CCC(=O)NC7=O)c(F)c6)CC5)CC4)cc3)C2(C)C)ccc1C#N [Compound A] and report it.
-- reply 232

----------
test: Solvent solubility screen of Compound A (aliquot addition, HPLC of saturated solutions); assay type: physicochemical; settings: Acetonitrile, 40 °C, organic solvent or mixture, thermodynamic from solid, Acetonitrile; read-out: Approximate Solubility
ATTRIBUTE MEASURED: solubility (µg/mL)
State just the number; it will be interpreted in µg/mL.

-- ask Find the recorded solubility belonging to COc1cc(O[C@H]2C(C)(C)[C@H](NC(=O)c3ccc(N4CCC(CN5CCN(c6ccc(C(=O)N[C@H]7CCC(=O)NC7=O)c(F)c6)CC5)CC4)cc3)C2(C)C)ccc1C#N and report it.
-- reply 995

----------
Assay: Solvent solubility screen of Compound A (aliquot addition, HPLC of saturated solutions)
Assay type: physicochemical
Details: anisole, organic solvent or mixture, thermodynamic from solid, anisole; read-out: solubility
Description: A known volume aliquot (typically 5 volumes) of solvent was added to approximately 5 mg of Compound A. See Table 14 for the selected solvents for the solvent solubility screen. Between each addition, the mixture was checked for dissolution and where no dissolution was apparent, the mixture was heated to ca. 40° C. and checked again. […] Where dissolution was not observed, solids were isolated centrifugally and analyzed by XRPD. The saturated solutions were analyzed by HPLC to obtain the solubility.
ATTRIBUTE MEASURED: solubility

-- ask Find the recorded solubility belonging to COc1cc(O[C@H]2C(C)(C)[C@H](NC(=O)c3ccc(N4CCC(CN5CCN(c6ccc(C(=O)N[C@H]7CCC(=O)NC7=O)c(F)c6)CC5)CC4)cc3)C2(C)C)ccc1C#N and report it.
-- reply 25 to 50 mg/mL

----------
assay: Solvent solubility screen of Compound A (aliquot addition, HPLC of saturated solutions); type: physicochemical; conditions: DMF, organic solvent or mixture, thermodynamic from solid, DMF; read-out: solubility
ATTRIBUTE MEASURED: solubility

-- ask Find the recorded solubility belonging to COc1cc(O[C@H]2C(C)(C)[C@H](NC(=O)c3ccc(N4CCC(CN5CCN(c6ccc(C(=O)N[C@H]7CCC(=O)NC7=O)c(F)c6)CC5)CC4)cc3)C2(C)C)ccc1C#N and report it.
-- reply > 100 mg/mL

----------
assay: 7-day stability assessment (appearance, HPLC, XRPD); assay type: physicochemical; settings: after 7 days at 40° C./75% RH (open vial), 80° C. (closed vial), ambient light (closed vial)
Recorded purity retained after stability storage (HPLC), one value per entry.

COc1cc(O[C@H]2C(C)(C)[C@H](NC(=O)c3ccc(N4CCC(CN5CCN(c6ccc(C(=O)N[C@H]7CCC(=O)NC7=O)c(F)c6)CC5)CC4)cc3)C2(C)C)ccc1C#N [free base Pattern 2]
> 98 % relative area
COc1cc(O[C@H]2C(C)(C)[C@H](NC(=O)c3ccc(N4CCC(CN5CCN(c6ccc(C(=O)N[C@H]7CCC(=O)NC7=O)c(F)c6)CC5)CC4)cc3)C2(C)C)ccc1C#N [tosylate Pattern 1]
> 96 % relative area
COc1cc(O[C@H]2C(C)(C)[C@H](NC(=O)c3ccc(N4CCC(CN5CCN(c6ccc(C(=O)N[C@H]7CCC(=O)NC7=O)c(F)c6)CC5)CC4)cc3)C2(C)C)ccc1C#N [free base Pattern 1]
> 99 % relative area

In the following, a different compound is considered.
-- ask Find the recorded purity retained after stability storage (HPLC) belonging to COc1cc(O[C@H]2C(C)(C)[C@H](NC(=O)c3ccc(N4CCC(CN5CCN(c6ccc(C(=O)N[C@H]7CCC(=O)NC7=O)c(F)c6)CC5)CC4)cc3)C2(C)C)ccc1C#N [besylate Pattern 1] and report it.
-- reply > 97 % relative area

----------
assay: Solvent solubility screen of Compound A (aliquot addition, HPLC of saturated solutions); type: physicochemical; settings: 2-Ethoxyethanol, 40 °C, organic solvent or mixture, thermodynamic from solid, 2-Ethoxyethanol; read-out: Approximate Solubility
ATTRIBUTE MEASURED: solubility

-- ask Find the recorded solubility belonging to COc1cc(O[C@H]2C(C)(C)[C@H](NC(=O)c3ccc(N4CCC(CN5CCN(c6ccc(C(=O)N[C@H]7CCC(=O)NC7=O)c(F)c6)CC5)CC4)cc3)C2(C)C)ccc1C#N [Compound A] and report it.
-- reply 1550 µg/mL

----------
assay: Primary salt screen: XRPD post temperature cycling/evaporation, post drying and post storage at 40° C./75% RH; assay type: physicochemical; conditions: Compound A + 1.05 eq. counterion (= label); DMSO:Water (50:50 % v/v)
ATTRIBUTE MEASURED: XRPD results post temperature cycling and evaporation

O=S(=O)(O)c1ccccc1
A e
O=C(O)C[C@H](O)C(=O)O
A t
Cc1ccc(S(=O)(=O)O)cc1
A t
O=C(O)CCC(=O)O
A t

----------
test: Solvent solubility screen of Compound A (aliquot addition, HPLC of saturated solutions); type: physicochemical; details: organic solvent or mixture, thermodynamic from solid, remaining 25 solvent systems tested; read-out: solubility
ATTRIBUTE MEASURED: solubility

-- ask Find the recorded solubility belonging to COc1cc(O[C@H]2C(C)(C)[C@H](NC(=O)c3ccc(N4CCC(CN5CCN(c6ccc(C(=O)N[C@H]7CCC(=O)NC7=O)c(F)c6)CC5)CC4)cc3)C2(C)C)ccc1C#N [Compound A] and report it.
-- reply < 5000 µg/mL
